Test: PSAC antagonists in infected red cells, primary screen, cell-based, P. falciparum Indochina, OD700, 18 h (AID 1157)
Details: P. falciparum Indochina infected erythrocytes, osmotic lysis OD700, 18 h; higher = more signal, called active from +8 up or from −8 down
Rule: z-score of 0.9 or more gives 1 (yes); anything lower gives 0 (no).

Is the recorded value of z-score equal to or greater than 0.9 for this compound? "O=C1O[C@H](c2ccccc2)[C@H](c2ccccc2)N2[C@H]1[C@@H](C(=O)Nc1nc3ccccc3s1)[C@]1(C(=O)Nc3ccccc31)[C@H]2c1ccc(OCCO)cc1" 1 (yes)

// repeat for C=CCC(OC(C)=O)[C@@H]1[C@@H](N(Cc2cccc3ccccc23)C(=O)c2cccc3ccccc23)c2cc(OCCCO)ccc2N1C(=O)c1ccc(-c2ccccc2)cc1 (stereo partly drawn) and report 0 (no)

// repeat for "O=C1O[C@@H](c2ccccc2)[C@@H](c2ccccc2)N2[C@@H](c3ccc(O)cc3)[C@]3(C(=O)Nc4ccc(C#CC5(O)CCCCCC5)cc43)[C@@H](C(=O)NC[C@H](O)c3ccccc3)[C@H]12" and report 1 (yes)

// repeat for "CC(C)(C)OC(=O)CC[C@]1(C(=O)NCc2ccccc2)N=C(c2ccc(OCCCO)cc2)O[C@H]1c1ccccc1CN=[N+]=[N-]" and report 1 (yes)

// repeat for C=CCC(OC(C)=O)[C@@H]1[C@@H](N(Cc2cc3ccccc3o2)C(=O)c2ccc(C)cc2)c2cc(OCCCO)ccc2N1C(=O)Cc1ccc(OC)cc1 (stereo partly drawn) and report 0 (no)

// repeat for "[N-]=[N+]=NCc1ccccc1C[C@@]1(C(=O)N2CCCCC2)N=C(c2ccc(OCCCO)cc2)O[C@@H]1c1ccccc1" and report 1 (yes)

// repeat for C=CCC(OC(C)=O)[C@@H]1[C@@H](N(Cc2cccc3ccccc23)C(=O)Cc2ccc(OC)cc2)c2cc(OCCCO)ccc2N1C(=O)c1ccc2ccccc2n1 (stereo partly drawn) and report 0 (no)

// repeat for "COCCOC(=O)N1C(=O)[C@@]2(c3cc(C#CC4=CCCCC4)ccc31)[C@H](c1ccc(OCCO)cc1)N1[C@H](c3ccccc3)[C@H](c3ccccc3)OC(=O)[C@H]1[C@@H]2C(=O)NC[C@H](O)c1ccccc1" and report 0 (no)

// repeat for O=C1NC(=O)C2C1C=CC(C(O)c1ccco1)N2Nc1ccccn1 (stereo not drawn) and report 0 (no)

// repeat for CC(CO)N1C(=O)[C@@H]2[C@H]3C(=O)OCC=C[C@H]3OC23C=CCN(C(C)(C)C)C(=O)[C@@H]13 (stereo partly drawn) and report 0 (no)

// repeat for "C[N+](C)(C)CCCC[C@@H]1NC(=O)[C@H]2C[C@@H](C(=O)NCCCCCCN)[C@@H](c3ccc(O)cc3)N2C1=O" and report 0 (no)

// repeat for O=C1OCC=C[C@H]2OC34C=CCN(Cc5ccccc5)C(=O)[C@H]3N(CCCCCCO)C(=O)[C@@H]4[C@@H]12 (stereo partly drawn) and report 0 (no)

// repeat for CCOC(=O)C1CCCCN1 (stereo not drawn) and report 0 (no)

// repeat for "CCOC(=O)C[C@H]1[C@H](OC(=O)Cc2ccc3c(c2)OCO3)[C@@H](NC(=O)CC(C)C)c2cc(OCCCO)ccc2N1C(=O)Cc1ccc(OC)cc1" and report 0 (no)

// repeat for "CN(C)CCCNC(=O)[C@@]1(C)c2ccccc2C(=O)N(Cc2ccccc2)[C@H]1c1ccc(CO)cc1" and report 0 (no)

// repeat for "C#CCN([C@@H](Cc1ccc(O)cc1)C(=O)OC)[C@@H](/C=C/C1CC1)[C@H](O)Cc1ccccc1" and report 0 (no)

// repeat for "CC(=O)NCCCC[C@@H]1NC(=O)[C@H]2C[C@@H](C(=O)NCCCC[N+](C)(C)C)[C@@H](c3cccc(OCCO)c3)N2C1=O" and report 0 (no)

// repeat for "COc1ccc([Si](C)(C)[C@H]2[C@H](CC(=O)N(CCO)Cc3ccccc3)O[C@@]3(C(=O)N(Cc4cccc(N5CCOC5=O)c4)c4ccccc43)[C@@H]2C)cc1" and report 1 (yes)

// repeat for [N-]=[N+]=NCc1ccccc1[C@H]1OC(c2ccc(OCCCO)cc2)=N[C@@]1(CCS(=O)(=O)c1ccccc1)C(=O)NCC(O)CO (stereo partly drawn) and report 1 (yes)

// repeat for COc1ccc(C(O)C2C=CC3C(=O)N(c4ccccc4)C(=O)C3N2Nc2ccc([N+](=O)[O-])cc2)cc1 (stereo not drawn) and report 1 (yes)

// repeat for "COC(=O)c1c2oc(c1C(=O)OC)C(=O)N(C)Cc1cn(nn1)C[C@H](Cc1ccccc1)NC(=O)N[C@H](CO)CC2" and report 0 (no)

// repeat for "C=C[C@@H](OC)[C@H](OC(=O)Nc1ccc(SC)cc1)c1ccc(O)c(F)c1" and report 1 (yes)

// repeat for "O=C(N1CCCCC1)[C@@]1(CCS(=O)(=O)c2ccccc2)COC(c2ccc(OCCCO)cc2)=N1" and report 1 (yes)

// repeat for N#Cc1ccc(NN2C(C(O)c3ccc(F)cc3)C=CC3C(=O)N(c4ccccc4)C(=O)C32)cc1 (stereo not drawn) and report 1 (yes)

// repeat for "COC(=O)[C@@]1(Cc2ccc(F)cc2)[C@H]2c3cc(C(=O)N4CCCC4)n(CCc4ccc(O)c(O)c4)c3C[C@H]2CN1C(=O)c1ccccc1" and report 1 (yes)

// repeat for CCC(CC)C(O)C1C=CC2C(=O)N(c3ccccc3)C(=O)C2N1Nc1ccc(C(C)C)cc1 (stereo not drawn) and report 0 (no)

// repeat for "O=C1N(Cc2ccccc2)Cc2ccccc2[C@@H]2OC(c3ccc(OCCCO)cc3)=N[C@]12CCS(=O)(=O)c1ccccc1" and report 0 (no)

// repeat for "[N-]=[N+]=Nc1ccccc1C[C@]1(C(=O)N2CCOCC2)N=C(c2ccc(OCCCO)cc2)O[C@H]1c1ccccc1" and report 1 (yes)

Values from PubChem BioAssay
